# ASSAY_INFO: Amounts of drugs solubilized at 20° C. in water, with PVP, with PEG-GTR and with the method of the invention
# Type: physicochemical
# TEST_SETTINGS: water, solubilizing agent none, 20° C.
RECORDED_ENDPOINT: Amt. of drug solubilized at 20° C. (% w/w)

Field: example entries. Status: answers known.
[ask] Read off the recorded Amt. of drug solubilized at 20° C. (% w/w) for CC(=O)OCC(=O)[C@@]12OC(C)(C)O[C@@H]1C[C@H]1[C@@H]3CC(C=O)=C4C=C(OCCCl)CC[C@]4(C)[C@@]3(F)[C@@H](O)C[C@@]12C
[reply] 0.008 % w/w

[ask] Read off the recorded Amt. of drug solubilized at 20° C. (% w/w) for C[C@@H]1O[C@@H](OC[C@H]2O[C@@H](Oc3c(-c4ccc(O)c(O)c4)oc4cc(O)cc(O)c4c3=O)[C@H](O)[C@@H](O)[C@@H]2O)[C@H](O)[C@H](O)[C@H]1O
[reply] 0.0125 % w/w

[ask] Read off the recorded Amt. of drug solubilized at 20° C. (% w/w) for CN1CCN(c2c(F)cc3c(=O)c(C(=O)O)cn4c3c2SCC4)CC1
[reply] 0.029 % w/w

[ask] Read off the recorded Amt. of drug solubilized at 20° C. (% w/w) for C=C[C@@]1(C)CC(=O)[C@]2(O)[C@@]3(C)[C@@H](O)CCC(C)(C)[C@@H]3[C@H](O)[C@H](OC(C)=O)[C@@]2(C)O1
[reply] 0.0029 % w/w

Continuing:
[ask] Read off the recorded Amt. of drug solubilized at 20° C. (% w/w) for CN1C(C(=O)Nc2ccccn2)=C(O)c2ccccc2S1(=O)=O
[reply] 0.0017 % w/w

[ask] Read off the recorded Amt. of drug solubilized at 20° C. (% w/w) for COc1ccc2c(C(=S)N(C)CC(=O)O)cccc2c1C(F)(F)F
[reply] 0.00075 % w/w
